tested on: SKMEL-28 (mutant B-Raf V600E); test: cells; conditions: Homo sapiens, SK-MEL-28, read-out: pERK inhibition EC50
pEC50: −log10 of the molar value.
Attribute measured: pEC50

[[record]]
sample_smiles = "Cn1c(Nc2ccc(C(F)(F)F)cc2)nc2cc(Oc3ccnc(-c4ncc(C(F)(F)F)[nH]4)c3)ccc21"
readout_value = 7.00


###

tested on: human tumor isolate #4; assay: cells; conditions: Pancreatic tumor, K-Ras
Attribute measured: EC50

[[record]]
sample_smiles = "Cn1c(Nc2ccc(C(F)(F)F)cc2)nc2cc(Oc3ccnc(-c4ncc(C(F)(F)F)[nH]4)c3)ccc21"
attribute_measured = "EC50"
readout_value = "~1 µM"

